Taken from paper PMC9490041.

For each record, write down the corresponding IC50.
molecular target: PSG G322A G335A (PSD-95); assay: FP displacement (competition) of FITC-15 AA CRIPT by library peptide, IC50 and Ki; conditions: read-out: IC50 (µM), PSG G322A G335A; FP displacement of FITC-15 AA CRIPT probe by acetylated PSD library peptide (P-13 to P0 plus extra N-terminal Y)
Answers are plain numbers, in µM.

In the examples that follow, each entry is paired with its recorded IC50.
CC(=O)N[C@@H](Cc1ccc(O)cc1)C(=O)N[C@@H](CCC(N)=O)C(=O)N[C@@H](CCCNC(=N)N)C(=O)NCC(=O)N[C@@H](CO)C(=O)N[C@@H](Cc1ccccc1)C(=O)N1CCC[C@H]1C(=O)N1CCC[C@H]1C(=O)N[C@@H](Cc1c[nH]c2ccccc12)C(=O)N[C@H](C(=O)N[C@@H](CCC(N)=O)C(=O)N[C@@H](CCC(N)=O)C(=O)N[C@H](C(=O)N[C@@H](CCCNC(=N)N)C(=O)N[C@H](C(=O)O)C(C)C)[C@@H](C)O)C(C)C [SYNGAP⍺1] ... 0.922
CC(=O)N[C@@H](Cc1ccc(O)cc1)C(=O)N[C@@H](CC(C)C)C(=O)N1CCC[C@H]1C(=O)N[C@@H](CC(C)C)C(=O)N[C@@H](CC(=O)O)C(=O)N[C@H](C(=O)N[C@@H](CCC(N)=O)C(=O)N[C@@H](CCC(=O)O)C(=O)NCC(=O)N[C@@H](CC(=O)O)C(=O)N[C@@H](Cc1ccccc1)C(=O)N[C@@H](CCC(N)=O)C(=O)N[C@H](C(=O)N[C@@H](CCC(=O)O)C(=O)N[C@H](C(=O)O)C(C)C)[C@@H](C)O)C(C)C [AGRB3] ... 534

// next item, IC50 requested
Specify measured IC50 for CC[C@H](C)[C@H](NC(=O)[C@H](CO)NC(=O)[C@@H](NC(=O)[C@@H](NC(=O)[C@@H]1CCCN1C(=O)[C@H](CC(C)C)NC(=O)[C@H](C)NC(=O)[C@@H]1CCCN1C(=O)[C@H](Cc1ccc(O)cc1)NC(C)=O)[C@@H](C)O)C(C)C)C(=O)N[C@@H](CO)C(=O)N[C@@H](CO)C(=O)N[C@@H](CO)C(=O)N[C@@H](C)C(=O)N[C@@H](CCC(=O)O)C(=O)N[C@H](C(=O)O)C(C)C [DOC10] .
2020

----------
For each record, write down the corresponding Ki.
molecular target: PSG G335A (PSD-95); assay: FP displacement (competition) of FITC-15 AA CRIPT by library peptide, IC50 and Ki; details: read-out: Ki (µM), PSG G335A; FP displacement of FITC-15 AA CRIPT probe by acetylated PSD library peptide
Lab note: write values as number then unit, every time.

In the examples that follow, each entry is paired with its recorded Ki.
CSCC[C@H](NC(=O)[C@H](CO)NC(=O)[C@H](Cc1ccc(O)cc1)NC(=O)[C@H](CC(C)C)NC(=O)[C@H](Cc1ccc(O)cc1)NC(=O)[C@H](Cc1ccc(O)cc1)NC(=O)[C@H](Cc1ccccc1)NC(=O)[C@H](Cc1ccc(O)cc1)NC(C)=O)C(=O)N[C@H](C(=O)N[C@@H](Cc1ccc(O)cc1)C(=O)N[C@H](C(=O)N[C@@H](CC(C)C)C(=O)N[C@H](C(=O)N[C@@H](CO)C(=O)N[C@@H](Cc1ccccc1)C(=O)O)C(C)C)[C@@H](C)O)C(C)C ... 184 µM
CC(=O)N[C@@H](Cc1ccc(O)cc1)C(=O)N[C@@H](C)C(=O)N1CCC[C@H]1C(=O)N[C@@H](C)C(=O)N[C@H](C(=O)N[C@@H](CO)C(=O)N1CCC[C@H]1C(=O)N1CCC[C@H]1C(=O)N[C@@H](CCC(=O)O)C(=O)N[C@@H](CCCNC(=N)N)C(=O)N[C@@H](C)C(=O)N[C@@H](CC(C)C)C(=O)N[C@@H](CO)C(=O)N[C@@H](CCCCN)C(=O)N[C@@H](CC(C)C)C(=O)O)[C@@H](C)O ... 257 µM

Output reported Ki of the molecule CC[C@H](C)[C@H](NC(=O)[C@H](CC(=O)O)NC(=O)[C@H](CCC(N)=O)NC(=O)CNC(=O)[C@@H](NC(=O)[C@H](CC(C)C)NC(=O)[C@@H]1CCCN1C(=O)[C@H](Cc1ccc(O)cc1)NC(C)=O)C(C)C)C(=O)N[C@H](C(=O)N[C@@H](CC(=O)O)C(=O)N[C@@H](CC(C)C)C(=O)N[C@@H](CCC(N)=O)C(=O)N[C@H](C(=O)N[C@@H](CCC(=O)O)C(=O)N[C@H](C(=O)O)C(C)C)[C@@H](C)O)[C@@H](C)CC on PSG G335A (PSD-95).
87 µM
